targetUnderTest: 5-hydroxytryptamine receptor 3A (Homo sapiens, UniProt P46098)
Sequence (P46098 whole entry): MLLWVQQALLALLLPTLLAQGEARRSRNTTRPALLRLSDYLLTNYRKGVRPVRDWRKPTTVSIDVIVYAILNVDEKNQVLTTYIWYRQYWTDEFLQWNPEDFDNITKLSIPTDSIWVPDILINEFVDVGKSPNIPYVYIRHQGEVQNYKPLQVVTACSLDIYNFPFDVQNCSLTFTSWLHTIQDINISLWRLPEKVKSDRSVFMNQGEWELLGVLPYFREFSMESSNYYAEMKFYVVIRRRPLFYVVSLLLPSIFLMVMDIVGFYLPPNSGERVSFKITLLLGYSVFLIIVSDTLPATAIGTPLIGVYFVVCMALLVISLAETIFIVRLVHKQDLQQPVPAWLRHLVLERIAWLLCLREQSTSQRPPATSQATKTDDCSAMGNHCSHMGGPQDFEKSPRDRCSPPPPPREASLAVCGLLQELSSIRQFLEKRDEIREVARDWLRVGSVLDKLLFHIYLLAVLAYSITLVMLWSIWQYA
testDetails: Antagonist activity at human 5-HT3A expressed in HEK293 cells assessed as reduction in acetylcholine-induced activity preincubated for 30 mins followed by addition of acetylcholine measured for 2 mins by Fluo-4AM dye based FLIPR assay
Type: cell-based
pIC50: −log10 of the molar value.
Listed compounds paired with reported pIC50

- compound: "COc1ccc2nc(NC3=NC[C@@]4(CN5CCC4CC5)O3)sc2c1"
  pIC50: 5.04
- compound: "COc1ccc2nc(NC3=NCCC4(CN5CCC4CC5)O3)sc2c1 (stereo not drawn)"
  pIC50: 4.19
- compound: "c1ccc2sc(NC3=NCC4(CN5CCCC4C5)O3)nc2c1 (racemic)"
  pIC50: 8.15
- compound: "COc1ccc2sc(NC3=NCC4(CN5CCC4CC5)O3)nc2c1 (stereo not drawn)"
  pIC50: 7.72
- compound: "COc1ccc2nc(NC3=NCC4(CN5CCC4CC5)O3)sc2c1 (stereo not drawn)"
  pIC50: 4.72
- compound: "Cc1ccc2nc(NC3=NCC4(CN5CCC4CC5)O3)sc2c1 (stereo not drawn)"
  pIC50: 5.42
- compound: "COc1ccc2nc(NC3=NC4(CO3)CN3CCC4CC3)sc2c1 (stereo not drawn)"
  pIC50: 4.33
- compound: "c1ccc(-c2ccnc(NC3=NC[C@@]4(CN5CCC4CC5)O3)c2)cc1"
  pIC50: 7.07

* * *

testDetails: Fraction unbound in rat plasma
Type: ADME, cell-free
readoutKind: fraction unbound

- querySmiles: "c1ccc2cc(NC3=NC[C@@]4(CN5CCC4CC5)O3)ncc2c1"
  readoutKind: "fraction unbound"
  reading: 0.269

* * *

targetUnderTest: Cytochrome P450 2C8 (Homo sapiens)
Sequence (P10632 whole entry): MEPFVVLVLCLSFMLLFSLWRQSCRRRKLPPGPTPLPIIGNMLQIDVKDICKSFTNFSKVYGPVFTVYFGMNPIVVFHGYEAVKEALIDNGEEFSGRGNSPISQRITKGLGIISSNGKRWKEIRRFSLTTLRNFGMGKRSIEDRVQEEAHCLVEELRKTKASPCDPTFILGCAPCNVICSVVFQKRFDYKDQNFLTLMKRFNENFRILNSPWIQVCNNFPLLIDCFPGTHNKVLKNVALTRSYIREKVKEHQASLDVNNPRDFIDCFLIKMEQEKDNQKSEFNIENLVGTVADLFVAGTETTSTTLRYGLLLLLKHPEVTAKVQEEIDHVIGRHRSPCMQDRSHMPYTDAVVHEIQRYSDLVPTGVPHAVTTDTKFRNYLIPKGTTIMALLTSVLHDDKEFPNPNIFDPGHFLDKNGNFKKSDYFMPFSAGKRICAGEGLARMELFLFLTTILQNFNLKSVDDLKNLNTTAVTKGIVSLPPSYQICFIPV
pIC50: −log10 of the molar value.
readoutKind: pIC50

- querySmiles: "c1ccc2cc(NC3=NC[C@@]4(CN5CCC4CC5)O3)ncc2c1"
  reading: "< 4.40"

* * *

targetUnderTest: Cytochrome P450 3A4 (Homo sapiens, UniProt P08684)
Sequence (P08684 whole entry): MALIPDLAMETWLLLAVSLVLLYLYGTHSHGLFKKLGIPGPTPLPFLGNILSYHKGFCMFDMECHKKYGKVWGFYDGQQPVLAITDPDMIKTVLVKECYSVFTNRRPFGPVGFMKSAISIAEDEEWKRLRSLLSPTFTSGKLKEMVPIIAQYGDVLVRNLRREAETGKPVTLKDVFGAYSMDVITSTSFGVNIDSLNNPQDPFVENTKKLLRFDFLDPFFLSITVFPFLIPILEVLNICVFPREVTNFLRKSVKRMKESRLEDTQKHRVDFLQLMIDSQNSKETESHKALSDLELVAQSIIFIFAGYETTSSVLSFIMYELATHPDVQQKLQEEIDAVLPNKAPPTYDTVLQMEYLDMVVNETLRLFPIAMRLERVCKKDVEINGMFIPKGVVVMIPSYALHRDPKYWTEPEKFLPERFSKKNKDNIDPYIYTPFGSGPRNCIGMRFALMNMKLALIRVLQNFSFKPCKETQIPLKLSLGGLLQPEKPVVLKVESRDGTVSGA
testDetails: Inhibition of human CYP3A4 using BZR as substrate
Type: ADME
pIC50: −log10 of the molar value.

- querySmiles: "c1ccc2cc(NC3=NC[C@@]4(CN5CCC4CC5)O3)ncc2c1"
  pIC50: "< 4.40"

* * *

testDetails: Ratio of drug level in Wistar rat brain to plasma at 10 mg/kg, sc
Type: ADME, organism-based
appliedConditions: read-out: BPR

- querySmiles: "COc1ccc2nc(NC3=NC[C@@]4(CN5CCC4CC5)O3)sc2c1"
  Kp: 7

* * *

testDetails: Fraction unbound in human plasma
Assay type: ADME, cell-free

- querySmiles: "c1ccc2cc(NC3=NC[C@@]4(CN5CCC4CC5)O3)ncc2c1"
  fraction unbound: 0.247

* * *

testDetails: Selectivity ratio of IC50 for human 5-HT3A expressed in HEK293 cells to EC50 for rat alpha7 nAChR expressed in HEK293 cells co-expressing human RIC3
Assay type: ADME, cell-based
Listed molecules paired with reported Ratio IC50/EC50
readoutKind: Ratio IC50/EC50

- molecule: "c1ccc2sc(NC3=NC[C@]4(CN5CCC4CC5)O3)nc2c1"
  reading: 6
- molecule: "COc1ccc2nc(NC3=NC4(CO3)CN3CCC4CC3)sc2c1 (stereo not drawn)"
  reading: 6

Every entry's value here was drawn from ChEMBL document CHEMBL3877302.
